Target: Tyrosyl-tRNA synthetase, putative (Trypanosoma cruzi (strain CL Brener)) (UniProt Q4DSP6)
Sequence (Q4DSP6 as listed by the source): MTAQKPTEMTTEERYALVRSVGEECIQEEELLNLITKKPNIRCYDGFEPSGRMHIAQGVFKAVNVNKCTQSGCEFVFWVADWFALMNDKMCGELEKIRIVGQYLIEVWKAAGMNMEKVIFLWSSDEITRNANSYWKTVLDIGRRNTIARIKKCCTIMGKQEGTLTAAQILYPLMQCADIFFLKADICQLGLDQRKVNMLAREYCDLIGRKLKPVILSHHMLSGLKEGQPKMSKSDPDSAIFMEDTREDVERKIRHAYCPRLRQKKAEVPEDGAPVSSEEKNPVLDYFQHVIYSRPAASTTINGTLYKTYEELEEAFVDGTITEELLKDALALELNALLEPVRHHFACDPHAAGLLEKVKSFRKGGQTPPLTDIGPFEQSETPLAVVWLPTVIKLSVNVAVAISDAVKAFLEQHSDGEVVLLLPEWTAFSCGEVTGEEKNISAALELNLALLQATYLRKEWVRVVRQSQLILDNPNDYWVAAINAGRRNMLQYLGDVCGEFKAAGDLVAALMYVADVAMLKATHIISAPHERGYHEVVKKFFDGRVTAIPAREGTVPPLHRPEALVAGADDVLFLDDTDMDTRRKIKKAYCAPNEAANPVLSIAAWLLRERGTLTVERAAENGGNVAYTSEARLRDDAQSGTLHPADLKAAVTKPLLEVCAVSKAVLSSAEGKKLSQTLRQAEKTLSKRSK
Assay: Trypanosoma cruzi tyrosyl tRNA synthetase (TcYRS) SOP
Type: functional
Design: scale not given: direction of the effect not stated beside the values
Settings: 30 µM
Provide the reported Percent Effect of each item.
Record the result as number plus unit.

Consider the compound `O=C(CSC1=NS(=O)(=O)c2cc(F)ccc2N1)Nc1cccc(Cl)c1` and give its measured Percent Effect.
-8.97%

Consider the compound `CS(=O)(=O)c1ccc(NC(=O)NCc2ccc3c(c2)CCC3)cn1` and give its measured Percent Effect.
8.43%

Consider the compound `Cc1cc2nc(SCC(=O)N3CCCC3)n(C(C)C)c(=O)c2[nH]1` and give its measured Percent Effect.
10.4%

Consider the compound CC1CN(Cc2nccn2C)CCN1c1ccc2nncn2n1 (stereo unspecified) and give its measured Percent Effect.
21.9%

Consider the compound `CCN1C[C@@H]2[C@@H](OC)CCN(S(=O)(=O)c3ccccc3F)[C@@H]2C1` and give its measured Percent Effect.
3.85%

Consider the compound CC(=O)N1CCC2(CCCN(Cc3ccc(Cl)c(C(F)(F)F)c3)C2)C1 (stereo unspecified) and give its measured Percent Effect.
10.3%

----------
Target: Protein translocase subunit SecA (Escherichia coli (strain K12)) (UniProt P10408)
Sequence (P10408 whole entry): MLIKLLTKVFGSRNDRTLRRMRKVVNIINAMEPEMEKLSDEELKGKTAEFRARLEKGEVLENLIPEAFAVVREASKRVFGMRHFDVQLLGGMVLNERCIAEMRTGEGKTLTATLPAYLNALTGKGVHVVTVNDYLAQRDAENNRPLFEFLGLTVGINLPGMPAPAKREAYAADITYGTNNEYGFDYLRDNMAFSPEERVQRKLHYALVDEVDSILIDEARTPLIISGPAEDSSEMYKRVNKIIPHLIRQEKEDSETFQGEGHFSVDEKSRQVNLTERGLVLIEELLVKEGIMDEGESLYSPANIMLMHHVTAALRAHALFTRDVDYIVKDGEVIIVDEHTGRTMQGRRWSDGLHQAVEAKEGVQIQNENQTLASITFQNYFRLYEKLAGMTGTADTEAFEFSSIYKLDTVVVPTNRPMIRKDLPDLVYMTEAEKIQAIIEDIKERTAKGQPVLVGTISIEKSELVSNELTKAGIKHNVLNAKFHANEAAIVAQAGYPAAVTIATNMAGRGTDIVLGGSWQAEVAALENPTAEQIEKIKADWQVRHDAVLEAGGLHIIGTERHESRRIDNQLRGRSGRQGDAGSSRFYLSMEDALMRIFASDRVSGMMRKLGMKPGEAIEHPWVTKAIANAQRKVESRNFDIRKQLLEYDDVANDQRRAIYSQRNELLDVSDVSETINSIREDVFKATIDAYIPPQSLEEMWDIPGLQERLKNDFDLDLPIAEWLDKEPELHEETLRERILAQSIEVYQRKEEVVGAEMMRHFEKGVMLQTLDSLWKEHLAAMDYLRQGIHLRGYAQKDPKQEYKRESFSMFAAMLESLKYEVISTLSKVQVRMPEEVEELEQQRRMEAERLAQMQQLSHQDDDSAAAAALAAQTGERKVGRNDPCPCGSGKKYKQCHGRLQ
Assay: Assay to Identify E. coli SecA ATPase Inhibitors
Type: functional
Parameters: scale not given: direction of the effect not stated beside the values
Conditions: 30 µM
Results with a measured potency or affinity are listed apart.
ASSAY METRIC: Percent Effect (%)
Number only, in %; omit the unit.

Consider the compound COCCN1CCN(Cc2cccc(C(=O)N(C)C)c2)CC1C (stereo unspecified) and give its measured Percent Effect.
-1.22

Consider the compound Cc1cc(C2CCCN2Cc2cc(=O)n(C)c(=O)n2C)on1 (stereo unspecified) and give its measured Percent Effect.
-4.6

Consider the compound `NC(=O)NCC(=O)N1C[C@H]2CC[C@@H]1CN(C1Cc3ccccc3C1)C2` and give its measured Percent Effect.
-3.92

Consider the compound CCOc1nnc(CN(C)CC2CCCN2c2cccnn2)s1 (stereo unspecified) and give its measured Percent Effect.
-2.36

Consider the compound `COCCCNc1nccc(-c2c[nH][nH]c2=O)n1` and give its measured Percent Effect.
-1.57

Consider the compound `O=C(O)[C@@H]1CN(C(=O)c2cc(C3CC3)n[nH]2)C[C@H]1c1cccc(F)c1` and give its measured Percent Effect.
-3.18

----------
Target: Protein translocase subunit SecA (Escherichia coli (strain K12))
Test: Assay to Identify E. coli SecA ATPase Inhibitors
Format: functional
Set-up: scale not given: direction of the effect not stated beside the values
Conditions: 30 µM
Results with a measured potency or affinity are listed apart.
ASSAY METRIC: Percent Effect (%)
Number only, in %; omit the unit.

Consider the compound COc1c(C2CCCN2Cc2c(C)noc2C)c(C)nn1C (stereo unspecified) and give its measured Percent Effect.
-5.49

Consider the compound `Cc1oc(C)c(C(=O)NCc2ccccc2S(=O)(=O)N(C)C)c1C` and give its measured Percent Effect.
-1.39

Consider the compound CCn1ncnc1C1CC(=O)NCc2nc3ccccn3c21 (stereo unspecified) and give its measured Percent Effect.
-7.68

Consider the compound CCn1ncc2c1C(COC)CN(Cc1ccc(OC)cc1)C2 (stereo unspecified) and give its measured Percent Effect.
-1.81

Consider the compound CCc1nc(C2CCCN(C(=O)c3ccc4c(c3)nnn4C)C2)no1 (stereo unspecified) and give its measured Percent Effect.
-9.33

Consider the compound `COCCN(Cc1ccc(F)cc1Cl)C(=O)c1cccc[n+]1[O-]` and give its measured Percent Effect.
-4.42

Consider the compound `CC(C)c1cc(N2CCC(CCC(=O)NC3CC3)CC2)n2nccc2n1` and give its measured Percent Effect.
-2.45

Consider the compound `COc1ccc2c(c1)OC1(CCN(Cc3ccc(F)cc3)CC1)CC2=O` and give its measured Percent Effect.
-2.19

Consider the compound `O=C(COCc1ccccc1)N1CCC(OCc2cccnc2)CC1` and give its measured Percent Effect.
-7.79

Consider the compound Cc1ccc(CCN2CCC(N(C)Cc3noc(C4CC4)n3)C2)cc1 (stereo unspecified) and give its measured Percent Effect.
-0.729

Consider the compound `O=C(NC1CC1)[C@H]1C[C@@H]2CCN(CCc3ccccc3)C[C@H]2O1` and give its measured Percent Effect.
2.18

----------
Organism: Homo sapiens
Experiment: To identify inhibition of the IFN signalling (Jak-Stat) pathway via expression of an eGFP reporter gene under the control of an IFN-stimulated response element (ISRE) containing MxA promoter.
Type: functional
Parameters: scale not given: direction of the effect not stated beside the values
Settings: 30 µM
Provide the reported Percent Effect of each item.
Number only, in %; omit the unit.

Consider the compound CS(=O)(=O)c1ccccc1C(=O)NCC1Cc2ccccc2O1 (stereo not drawn) and give its measured Percent Effect.
20.8

Consider the compound CCCc1noc(CN2CCCC2c2c(C)nn(C)c2OC)n1 (stereo not drawn) and give its measured Percent Effect.
9.23

Consider the compound `CC(C)(C)n1cc(C(=O)N2CCN(Cc3ccsc3)CC2)cn1` and give its measured Percent Effect.
-5.26

Consider the compound `CC(C)c1nnc2n1CCN(CC(=O)N1CCc3ccccc3C1)C2` and give its measured Percent Effect.
5.07

Consider the compound Cc1nc(C2CCCN(C(=O)c3ccc(OCC4CC4)cc3)C2)no1 (stereo not drawn) and give its measured Percent Effect.
0.288

Consider the compound `O=C(COCc1ccccc1)N1CCC(OCc2cccnc2)CC1` and give its measured Percent Effect.
35.8

Consider the compound `Cn1nc(C#N)c2c1CN(C(=O)c1cccnc1)CCC2` and give its measured Percent Effect.
6.32

Consider the compound CN1CCCC1CNC(=O)CCCOCc1ccccc1 (stereo not drawn) and give its measured Percent Effect.
-1.82

Consider the compound `CN1CCc2c(C#N)c(NCc3ccco3)n3cnnc3c2C1` and give its measured Percent Effect.
-6.85

Consider the compound `COc1cc(C(=O)N2CCCS2(=O)=O)ccc1C` and give its measured Percent Effect.
1.35

Consider the compound Fc1cnc(N2CCC3(COCc4cnc(NCC5CC5)nc43)C2)nc1 (stereo not drawn) and give its measured Percent Effect.
-6.32

Consider the compound COCCN1C(=O)CC(N2CCN(c3ccc(F)cc3)CC2)C1=O (stereo not drawn) and give its measured Percent Effect.
14.5

Consider the compound `CN(Cc1nccn1CC(F)(F)F)C(=O)c1ccc(F)cc1F` and give its measured Percent Effect.
-12.9

Consider the compound CC(=O)Nc1nc(CN2CCCC2Cn2cc(C)cn2)cs1 (stereo not drawn) and give its measured Percent Effect.
4.62

Consider the compound Cc1cc(C)n(CC2CCCN2C(=O)c2ccc(C(N)=O)cn2)n1 (stereo not drawn) and give its measured Percent Effect.
7.83

Consider the compound CN(C)C(=O)N1CCN(C(=O)C(c2ccccc2F)N(C)C)CC1 (stereo not drawn) and give its measured Percent Effect.
-4.8

Consider the compound `COc1ccc(NC(=O)CCc2c(C)nc3cc(O)nn3c2C)cn1` and give its measured Percent Effect.
25.5

Consider the compound `Cc1[nH]/c(=N\C(=O)c2csc(NC3CC3)n2)sc1C` and give its measured Percent Effect.
10.7

Consider the compound `O=C(NCCNc1cnccn1)N1CCN(Cc2cccnc2)CC1` and give its measured Percent Effect.
10.6

Consider the compound `COc1cccc(C(=O)NS(=O)(=O)c2cccc(C#N)c2)c1OC` and give its measured Percent Effect.
0.367

Consider the compound OC(CN1CCC(c2ccn[nH]2)CC1)c1cccc(F)c1 (stereo not drawn) and give its measured Percent Effect.
13.5

Consider the compound `Clc1ccccc1C1(c2ccnc(-c3ccncc3)n2)CCNCC1` and give its measured Percent Effect.
16.3

Consider the compound O=C1NC2(CCN(Cc3cccnc3)CC2)CC1c1ccncc1 (stereo not drawn) and give its measured Percent Effect.
-18.7

Consider the compound `Cc1cc(S(=O)(=O)N2CCC(S(C)(=O)=O)CC2)ccc1F` and give its measured Percent Effect.
14.6

Consider the compound CC(=O)NC1CCCN(C(=O)NCc2cccnc2N(C)C)C1 (stereo not drawn) and give its measured Percent Effect.
11.5

Consider the compound `CNS(=O)(=O)c1ccc(C(=O)NCCc2ccccn2)cc1` and give its measured Percent Effect.
-22.9

Consider the compound Cc1cccc(CS(=O)(=O)NCC(O)Cc2ccccc2)c1 (stereo not drawn) and give its measured Percent Effect.
7.9

Consider the compound `O=C(COc1coc(CN2CCCCC2)cc1=O)Nc1ccccc1Cl` and give its measured Percent Effect.
-3.22

Consider the compound `COc1ccc(CN2CC[C@@H](O)[C@@H]2Cc2ccccc2)cc1` and give its measured Percent Effect.
9.5

Consider the compound `O=C(CCc1ccccc1)N1CCn2cc(CN3CCCC3)nc2C1` and give its measured Percent Effect.
7.71

Consider the compound O=C(c1ccccn1)N1Cc2nccn2CC(COc2cccnc2)C1 (stereo not drawn) and give its measured Percent Effect.
20.5

Consider the compound COC(=O)CCN1CCCC1c1cccc2c1OCCO2 (stereo not drawn) and give its measured Percent Effect.
5.8

Consider the compound `CCN1CCC(NC(=O)CN2CCc3c(ncn3C)C2)CC1` and give its measured Percent Effect.
10.1

Consider the compound `CN(C(=O)Cc1c[nH]c2ccccc12)C1CCN(c2ccccn2)CC1` and give its measured Percent Effect.
31.5

Consider the compound `Cn1nc(CNC(=O)c2nc3ccccc3s2)c2c1CCOC2` and give its measured Percent Effect.
24.8

Consider the compound `CN(C)c1cc(CNC(=O)Nc2ccc(F)cc2)ccn1` and give its measured Percent Effect.
6.94

Consider the compound `O=C(NCCc1ccc(Cl)s1)NCc1nnc2n1CCC2` and give its measured Percent Effect.
4.94

Consider the compound `c1cnc(-c2nc(CN3CCC(c4ccn[nH]4)CC3)cs2)nc1` and give its measured Percent Effect.
-0.446

Consider the compound CCc1nc(C2CCCN2CCCS(=O)(=O)c2ccccc2)no1 (stereo not drawn) and give its measured Percent Effect.
6.1

Consider the compound `CC(C)CN1CCCn2nc(CNC(=O)c3cccnc3O)cc2C1` and give its measured Percent Effect.
13.9

Consider the compound `CS(=O)(=O)N1CCN(C(=O)Cn2ccc3c(Cl)cccc32)CC1` and give its measured Percent Effect.
4.83

Consider the compound `Cc1cccc(CN2C[C@@H]3CN(C(=O)NC(C)C)C[C@@H]3C2=O)c1` and give its measured Percent Effect.
-7.06

Consider the compound CN(Cc1cnn(-c2ccccc2)n1)CC1CCCN1c1cccnn1 (stereo not drawn) and give its measured Percent Effect.
8.95

Consider the compound `CCn1cnnc1C1CCN(C(=O)COCCc2ccccc2)CC1` and give its measured Percent Effect.
-1.88

Consider the compound `CCn1cnnc1CNC(=O)N1CCOCC1` and give its measured Percent Effect.
-3.83

Consider the compound `Cn1cc(-c2csc(N3CCOCC3)n2)cn1` and give its measured Percent Effect.
1.08

Consider the compound `CCNC(=O)C1CCN(Cc2csc(-c3ccc(C)o3)n2)CC1` and give its measured Percent Effect.
27.6

Consider the compound `CN1CCN(Cc2cn3c(n2)CN(C(=O)N2CCOCC2)CC3)CC1` and give its measured Percent Effect.
-12.5
